Biological target: human Y4 receptor (human, UniProt P50391 1-375)
Sequence (P50391 whole entry): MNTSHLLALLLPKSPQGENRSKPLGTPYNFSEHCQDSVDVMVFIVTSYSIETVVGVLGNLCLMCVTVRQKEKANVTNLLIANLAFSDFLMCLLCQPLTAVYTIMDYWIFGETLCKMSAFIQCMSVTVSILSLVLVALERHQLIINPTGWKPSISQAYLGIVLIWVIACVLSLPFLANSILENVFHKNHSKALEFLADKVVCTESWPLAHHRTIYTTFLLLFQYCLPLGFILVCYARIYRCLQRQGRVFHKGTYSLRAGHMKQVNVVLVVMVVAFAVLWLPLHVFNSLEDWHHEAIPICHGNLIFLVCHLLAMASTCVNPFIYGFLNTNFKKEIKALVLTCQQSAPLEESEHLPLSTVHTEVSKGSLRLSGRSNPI
Experiment: 125I-PP displacement
reportedMetric: IC50 (pM)

APLEPEYPGDDATPQQMAKYAADLRRYINKLTRPRY [4057257]	83

P. PLEPEYPGDDATPQQMAKYAADLRRYINKLTRPRY [4057256]
Q. DAPLEPVYPGDNATPEQMARYAADLRRYINKLTRPRY [4057337]
For P and Q , which recorded IC50 is lower? Output the label that corresponds to your choice.
P
(P: 73 pM, Q: 109 pM)

1. PAPLEPVYPGDNATPEQLAKYAADLRRYINKLTRPRY [4057145]
2. AAPLEPVYPGDNATPEQMARYAAELRRYINKLTRPRY [4057161]
Rank 1 against 2 by their IC50 values and give the higher one. Output the label that corresponds to your choice.
2
(2: 125 pM, 1: 70 pM)
